So I've got a bunch of molecules here, and I need their F values.
Conditions: female, CD1, mouse, in vivo
Give a bare numeral; the unit % is implied.

For reference, reported F for `CCc1c(N2CCN(C(=O)c3ncnc(C)c3O)CC2)c(=O)n2nc(-c3cc4c(s3)COC4)nc2n1CC(=O)Nc1ccc(C(F)(F)F)c2ccoc12` stands at 57

For reference, reported F for CCc1c(N2CCN(C(=O)c3ncccc3O)CC2)c(=O)n2nc(-c3cccnc3)nc2n1CC(=O)Nc1ccc(C(F)(F)F)cc1C [A1, reference compound] stands at 14

For reference, reported F for `CCc1c(N2CCN(C(=O)c3ncccc3O)CC2)c(=O)n2nc(-c3ccc(CO)s3)nc2n1CC(=O)Nc1ccc(C(F)(F)F)cc1Cl` stands at 25

For reference, reported F for `CCc1c(N2CCN(C(=O)c3ncnc(C)c3O)CC2)c(=O)n2nc(-c3cc4c(s3)COC4)nc2n1CC(=O)Nc1ccc(Br)c2ccoc12` stands at 41

---

Test: in vivo
Conditions: female, CD1, mouse, iv, 2 mg/kg
measurement-type: clearance (mL/min/kg)
Give a bare numeral; the unit mL/min/kg is implied.

For reference, reported clearance for `CCc1c(N2CCN(C(=O)c3ncccc3O)CC2)c(=O)n2nc(-c3ccc(CO)s3)nc2n1CC(=O)Nc1ccc(C(F)(F)F)cc1Cl` stands at 27

For reference, reported clearance for `CCc1c(N2CCN(C(=O)c3ncnc(C)c3O)CC2)c(=O)n2nc(-c3cc4c(s3)COC4)nc2n1CC(=O)Nc1ccc(C(F)(F)F)c2ccoc12` stands at 10.5

For reference, reported clearance for CCc1c(N2CCN(C(=O)c3ncccc3O)CC2)c(=O)n2nc(-c3cccnc3)nc2n1CC(=O)Nc1ccc(C(F)(F)F)cc1C [A1, reference compound] stands at 28.1

For reference, reported clearance for `CCc1c(N2CCN(C(=O)c3ncnc(C)c3O)CC2)c(=O)n2nc(-c3cc4c(s3)COC4)nc2n1CC(=O)Nc1ccc(Br)c2ccoc12` stands at 11.2

---

System: HT-29 colorectal cancer cells
Test: 2D antiproliferation on MSS HT-29 cells, CTG, 5 days
Assay type: cell-based
Settings: Homo sapiens, 120 h, HT-29 MSS
measurement-type: IC50

For reference, reported IC50 for CCc1c(N2CCN(C(=O)c3ncnc(C)c3O)CC2)c(=O)n2nc(-c3cc4c(s3)COC4)nc2n1CC(=O)Nc1ccc(C(F)(F)F)c2ccoc12 [P57] stands at > 10 µM

For reference, reported IC50 for CCc1c(N2CCN(C(=O)c3ncnc(C)c3O)CC2)c(=O)n2nc(-c3cnc(CO)s3)nc2n1CC(=O)Nc1ccc(C(F)(F)F)c2ccsc12 [P36] stands at > 10 µM

For reference, reported IC50 for CCc1c(N2CCN(C(=O)c3ncccc3O)CC2)c(=O)n2nc(-c3cc4cnn(C)c4s3)nc2n1CC(=O)Nc1ccc(C(F)(F)F)cc1Cl [P16] stands at > 10 µM

---

So I've got a bunch of molecules here, and I need their inhibition at 10 µM values.
System: SW48 colorectal cancer cells
Assay: 2D antiproliferation on MSI-H SW48 cells, CTG, 5 days
Format: cell-based
Conditions: Homo sapiens; SW48, 10000 nM; read-out: Test 2/Inhibition Rate
Give a bare numeral; the unit % is implied.

For reference, reported inhibition at 10 µM for `CCc1c(N2CCN(C(=O)c3ncnc(C)c3O)CC2)c(=O)n2nc(-c3cc4c(s3)COC4)nc2n1CC(=O)Nc1ccc(C(F)(F)F)cc1C` stands at 99.6

For reference, reported inhibition at 10 µM for `CCc1c(N2CCN(C(=O)c3ncnc(C)c3O)CC2)c(=O)n2nc(-c3cc4c(s3)COC4)nc2n1CC(=O)Nc1ccc(Br)cc1Cl` stands at 97.3

For reference, reported inhibition at 10 µM for `CCc1c(N2CCN(C(=O)c3ncnc(C)c3O)CC2)c(=O)n2nc(-c3cc4cn[nH]c4s3)nc2n1CC(=O)Nc1ccc(C(F)(F)F)cc1Cl` stands at 102

For reference, reported inhibition at 10 µM for `CCc1c(N2CCN(C(=O)c3ncnc(C)c3O)CC2)c(=O)n2nc(-c3cc4c(s3)COC4)nc2n1CC(=O)Nc1ccc(C(F)(F)F)cc1Cl` stands at 101

---

Assay: Caco-2 membrane permeability assay
Type: in vitro ADME
Conditions: human, Caco-2
measurement-type: efflux ratio

For reference, reported efflux ratio for CCc1c(N2CCN(C(=O)c3ncnc(C)c3O)CC2)c(=O)n2nc(-c3cc4c(s3)COC4)nc2n1CC(=O)Nc1ccc(C(F)(F)F)c(C)c1C [P62] stands at 11.6

---

Assay: in vivo
Conditions: female, CD1, mouse, iv, 2 mg/kg
So I've got a bunch of molecules here, and I need their C0 values.
Please answer using a numeric value trailed by its unit.

For reference, reported C0 for `CCc1c(N2CCN(C(=O)c3ncnc(C)c3O)CC2)c(=O)n2nc(-c3cc4c(s3)COC4)nc2n1CC(=O)Nc1ccc(Br)c2ccoc12` stands at 5260 ng/mL

For reference, reported C0 for `CCc1c(N2CCN(C(=O)c3ncnc(C)c3O)CC2)c(=O)n2nc(-c3cc4c(s3)COC4)nc2n1CC(=O)Nc1ccc(C(F)(F)F)c2ccoc12` stands at 2920 ng/mL

For reference, reported C0 for CCc1c(N2CCN(C(=O)c3ncccc3O)CC2)c(=O)n2nc(-c3cccnc3)nc2n1CC(=O)Nc1ccc(C(F)(F)F)cc1C [A1, reference compound] stands at 2520 ng/mL

For reference, reported C0 for `CCc1c(N2CCN(C(=O)c3ncccc3O)CC2)c(=O)n2nc(-c3ccc(CO)s3)nc2n1CC(=O)Nc1ccc(C(F)(F)F)cc1Cl` stands at 2840 ng/mL

---

Tested on: SW48 colorectal cancer cells
Assay: 2D antiproliferation on MSI-H SW48 cells, CTG, 5 days
Type: cell-based
Conditions: Homo sapiens; SW48, 39.0625 nM; read-out: Test 1/Inhibition Rate
measurement-type: inhibition at 0.0390625 µM (%)
Give a bare numeral; the unit % is implied.

For reference, reported inhibition at 0.0390625 µM for CCc1c(N2CCN(C(=O)c3ncnc(C)c3O)CC2)c(=O)n2nc(-c3cc4c(s3)COC4)nc2n1CC(=O)Nc1ccc(Br)cc1Cl [P24] stands at 40.3

For reference, reported inhibition at 0.0390625 µM for CCc1c(N2CCN(C(=O)c3ncnc(C)c3O)CC2)c(=O)n2nc(-c3cc4c(s3)COC4)nc2n1CC(=O)Nc1ccc(C(F)(F)F)cc1Cl [P7] stands at 56

For reference, reported inhibition at 0.0390625 µM for CCc1c(N2CCN(C(=O)c3ncnc(C)c3O)CC2)c(=O)n2nc(-c3cc4c(s3)COC4)nc2n1CC(=O)Nc1ccc(C(F)(F)F)cc1C [P29] stands at 70.9

For reference, reported inhibition at 0.0390625 µM for CCc1c(N2CCN(C(=O)c3ncnc(C)c3O)CC2)c(=O)n2nc(-c3cc4cn[nH]c4s3)nc2n1CC(=O)Nc1ccc(C(F)(F)F)cc1Cl [P19] stands at 3.47

---

Tested on: SW48 colorectal cancer cells
Test: 2D antiproliferation on MSI-H SW48 cells, CTG, 5 days
Assay type: cell-based
Details: Homo sapiens; SW48, 0.610351563 nM; read-out: Average Value/Inhibition Rate
measurement-type: inhibition at 0.000610352 µM (%)
Give a bare numeral; the unit % is implied.

For reference, reported inhibition at 0.000610352 µM for `CCc1c(N2CCN(C(=O)c3ncnc(C)c3O)CC2)c(=O)n2nc(-c3cc4c(s3)COC4)nc2n1CC(=O)Nc1ccc(C(F)(F)F)cc1Cl` stands at 4.19

For reference, reported inhibition at 0.000610352 µM for `CCc1c(N2CCN(C(=O)c3ncnc(C)c3O)CC2)c(=O)n2nc(-c3cc4c(s3)COC4)nc2n1CC(=O)Nc1ccc(Br)cc1Cl` stands at -6.66

For reference, reported inhibition at 0.000610352 µM for `CCc1c(N2CCN(C(=O)c3ncnc(C)c3O)CC2)c(=O)n2nc(-c3cc4c(s3)COC4)nc2n1CC(=O)Nc1ccc(C(F)(F)F)cc1C` stands at 14.7

For reference, reported inhibition at 0.000610352 µM for `CCc1c(N2CCN(C(=O)c3ncnc(C)c3O)CC2)c(=O)n2nc(-c3cc4cn[nH]c4s3)nc2n1CC(=O)Nc1ccc(C(F)(F)F)cc1Cl` stands at 2.86

---

Tested on: SW48 colorectal cancer cells
Experiment: 2D antiproliferation on MSI-H SW48 cells, CTG, 5 days
Format: cell-based
Conditions: Homo sapiens; SW48, 0.038146973 nM; read-out: Test 1/Inhibition Rate
So I've got a bunch of compounds here, and I need their inhibition at 38.15 pM values.
Give a bare numeral; the unit % is implied.

For reference, reported inhibition at 38.15 pM for `CCc1c(N2CCN(C(=O)c3ncnc(C)c3O)CC2)c(=O)n2nc(-c3cc4c(s3)COC4)nc2n1CC(=O)Nc1ccc(C(F)(F)F)cc1Cl` stands at 2.01

For reference, reported inhibition at 38.15 pM for `CCc1c(N2CCN(C(=O)c3ncnc(C)c3O)CC2)c(=O)n2nc(-c3cc4c(s3)COC4)nc2n1CC(=O)Nc1ccc(Br)cc1Cl` stands at -3.47

For reference, reported inhibition at 38.15 pM for `CCc1c(N2CCN(C(=O)c3ncnc(C)c3O)CC2)c(=O)n2nc(-c3cc4cn[nH]c4s3)nc2n1CC(=O)Nc1ccc(C(F)(F)F)cc1Cl` stands at 2.13

For reference, reported inhibition at 38.15 pM for `CCc1c(N2CCN(C(=O)c3ncnc(C)c3O)CC2)c(=O)n2nc(-c3cc4c(s3)COC4)nc2n1CC(=O)Nc1ccc(C(F)(F)F)cc1C` stands at 18
